target: Histone-lysine N-methyltransferase EHMT2 (Homo sapiens); experiment: qHTS Assay for Inhibitors of Histone Lysine Methyltransferase G9a; conditions: G9a H3K9 monomethylation, AlphaScreen, 2 h; series mostly up to 59 µM; note: nearly all actives have a fitted effect of over 75% in size; note: potency is the fitted concentration of half-maximal effect
Out of some 350,000 compounds screened, about 31,000 (8.9%) were called active. Another 15% or so got no clear call; they are omitted. This is one part of a sample in which actives are shown more often than they occur.
endpoint: Potency

[[record]]
compound = "CCc1ccc(C2C(C(=O)Nc3ccccc3)=C(C)Nc3c(C(=O)Nc4ccc(C)cc4)cnn32)cc1 (configuration not stated)"
val = "inactive"

[[record]]
compound = "OCC(CO)NC1C[C@](O)(CO)[C@@H](O)[C@H](O)[C@H]1O (some centres not stated)"
val = "inactive"

[[record]]
compound = "COc1ccc(CNC(=O)C2CC(c3ccc(C(F)(F)F)cc3)=NO2)cc1 (configuration not stated)"
val = "inactive"

[[record]]
compound = "CCOC(=O)C1(Cc2ccccc2C)CCCN(C(=O)CN2C(=O)CSC2=O)C1 (configuration not stated)"
val = "inactive"

[[record]]
compound = "COc1ccc(NS(=O)(=O)c2ccc(C)c(C(=O)NCC(c3cccs3)N3CCOCC3)c2)cc1 (configuration not stated)"
val = "inactive"

[[record]]
compound = "Cc1ccc2c(c1)C1CN(C)CCC1N2S(=O)(=O)c1ccc(Oc2ccc([N+](=O)[O-])cc2)cc1 (configuration not stated)"
val = "35.5 µM (active)"

[[record]]
compound = "Cc1nccn1CC(=O)N/N=C/c1ccc(O)c(O)c1"
val = "7.08 µM (active)"

[[record]]
compound = "Cc1ccc(CNS(=O)(=O)c2ccc(-c3cc(C(F)(F)F)on3)s2)cc1"
val = "inactive"

[[record]]
compound = "NC(=O)CC[C@@H]1NC(=O)[C@H](CO)NC(=O)c2cc([N+](=O)[O-])cc(I)c2NCC[C@@H](C(N)=O)NC1=O"
val = "10 µM (active)"

[[record]]
compound = "COC(=O)CSc1nnc(NC(=O)CCc2ccccc2)s1"
val = "inactive"

[[record]]
compound = "Cc1ccc(CNS(=O)(=O)CCNC(=O)c2ccccc2)cc1"
val = "inactive"

[[record]]
compound = "CC(C)OC(=O)c1c(NC(=O)c2ccco2)sc2c1CCCC2"
val = "inactive"

[[record]]
compound = "C=CCC1=C/C(=C\\c2c(N)n3nc(CC(=O)N4CCOCC4)sc3nc2=O)C=C(OC)C1=O"
val = "inactive"

[[record]]
compound = "COc1cccc(C(=O)OCc2cc(=O)oc3c(C)c(C)ccc23)c1OC"
val = "inactive"

[[record]]
compound = "Cc1cc(C)c(OCCN2CC(C)OC(C)C2)c(Br)c1 (configuration not stated)"
val = "8.91 µM (active)"

[[record]]
compound = "CC(C)Cc1nnc(NC(=O)CCc2ccccc2)s1"
val = "35.5 µM (active)"

[[record]]
compound = "Cc1nn(-c2ccc(N3CCCCC3)nn2)c(C)c1CCC(=O)NCc1ccc(F)cc1"
val = "inactive"

[[record]]
compound = "Cc1ccc(/C=N/NC(=O)CSc2nc3ccccc3o2)cc1"
val = "inactive"

[[record]]
compound = "O=C(/C=C\\NCC(=O)c1ccccc1)c1ccccc1"
val = "6.31 µM (active)"

[[record]]
compound = "Cc1cccc(NC(=O)N2CCN(C)c3ncccc32)c1C"
val = "inactive"

[[record]]
compound = "Cc1cc(C)cc(NC(=O)CSc2nc(=O)n(CCN3CCOCC3)c3c2CCC3)c1"
val = "inactive"

[[record]]
compound = "CCOCc1nnc(NC(=O)CCS(=O)(=O)Cc2ccccc2)s1"
val = "79.4 µM (active)"

[[record]]
compound = "CCc1ccc(C(=O)NNC(=O)C2CCN(c3ncnc4sc(C)c(C)c34)CC2)cc1"
val = "inactive"

[[record]]
compound = "Cc1ccc2c(=O)cc(C(=O)Nc3sc4c(c3C(=O)NCc3cccnc3)CCCC4)oc2c1"
val = "inactive"

[[record]]
compound = "COc1cc(NS(=O)(=O)c2ccc3c(c2)OCC(C(=O)N2CCCC2)O3)cc(OC)c1 (configuration not stated)"
val = "inactive"

[[record]]
compound = "CNC(=O)CN1C(=O)c2cccnc2Sc2ccccc21"
val = "inactive"

[[record]]
compound = "O=C(CCn1nnnc1CN1CCOCC1)N1CCC(c2ccccc2Cl)C1 (configuration not stated)"
val = "inactive"

[[record]]
compound = "CCN(Cc1ccccc1)S(=O)(=O)c1cc2c3c(c1)CCN3C(=O)CC2"
val = "inactive"

[[record]]
compound = "CCOC(=O)c1scc(-c2ccc(C)cc2)c1S(=O)(=O)Nc1cc(C)ccc1C"
val = "inactive"

[[record]]
compound = "O=C(NCCCN1CCCC1=O)C(=O)NCC1OCCN1S(=O)(=O)c1ccc(Br)cc1 (configuration not stated)"
val = "inactive"

[[record]]
compound = "CCOC(=O)C1CCCN(C(=O)c2ccc3c(c2)sc2nc(-c4ccc(CC)cc4)cn23)C1 (configuration not stated)"
val = "inactive"

[[record]]
compound = "CCN(CC(=O)Nc1c(F)cccc1F)C(=O)c1ccc(-c2ccccc2)cc1"
val = "inactive"

[[record]]
compound = "O=C(CC1N=C2c3ccccc3N=C(SCc3ccc(F)cc3)N2C1=O)NCc1cccs1 (configuration not stated)"
val = "inactive"

[[record]]
compound = "Cc1cc(C)n2nc(C(=O)N3CCN(Cc4ccc5c(c4)OCO5)CC3)nc2n1"
val = "inactive"

[[record]]
compound = "Cc1ccc(S(=O)(=O)N2CCc3cc(C(=O)Nc4ccc(Cl)cc4C)ccc32)cc1"
val = "inactive"

[[record]]
compound = "CCC(=O)c1ccc(OCC(=O)N(CC)CC2COc3ccccc3O2)cc1 (configuration not stated)"
val = "inactive"

[[record]]
compound = "COc1ccc(S(=O)(=O)N2CCSCC2)cc1"
val = "inactive"

[[record]]
compound = "COc1ccc(NC(=O)CCCC(=O)c2ccccc2)cc1"
val = "inactive"

[[record]]
compound = "CCOc1ccc(/C=N/NC(=O)CSc2ccccn2)cc1O"
val = "inactive"

[[record]]
compound = "COC(=O)CN1C(=O)[C@H]2[C@@H](/C=C/c3ccccc3)N3C(=O)CN(Cc4ccccc4)C(=O)[C@@]3(Cc3ccccc3)[C@H]2C1=O"
val = "inactive"

[[record]]
compound = "O=C(Nc1cc(Cl)ccc1N1CCOCC1)c1ccc(N2CCCC2=O)cc1"
val = "inactive"

[[record]]
compound = "COc1cccc2c1cc1c(=O)n(CC(=O)N3CCN(c4cccc(Cl)c4)CC3)nc(C)n12"
val = "inactive"

